Origin of values: patent US11351178B2

Quick list: IC50 per entry.
Sequence of the target: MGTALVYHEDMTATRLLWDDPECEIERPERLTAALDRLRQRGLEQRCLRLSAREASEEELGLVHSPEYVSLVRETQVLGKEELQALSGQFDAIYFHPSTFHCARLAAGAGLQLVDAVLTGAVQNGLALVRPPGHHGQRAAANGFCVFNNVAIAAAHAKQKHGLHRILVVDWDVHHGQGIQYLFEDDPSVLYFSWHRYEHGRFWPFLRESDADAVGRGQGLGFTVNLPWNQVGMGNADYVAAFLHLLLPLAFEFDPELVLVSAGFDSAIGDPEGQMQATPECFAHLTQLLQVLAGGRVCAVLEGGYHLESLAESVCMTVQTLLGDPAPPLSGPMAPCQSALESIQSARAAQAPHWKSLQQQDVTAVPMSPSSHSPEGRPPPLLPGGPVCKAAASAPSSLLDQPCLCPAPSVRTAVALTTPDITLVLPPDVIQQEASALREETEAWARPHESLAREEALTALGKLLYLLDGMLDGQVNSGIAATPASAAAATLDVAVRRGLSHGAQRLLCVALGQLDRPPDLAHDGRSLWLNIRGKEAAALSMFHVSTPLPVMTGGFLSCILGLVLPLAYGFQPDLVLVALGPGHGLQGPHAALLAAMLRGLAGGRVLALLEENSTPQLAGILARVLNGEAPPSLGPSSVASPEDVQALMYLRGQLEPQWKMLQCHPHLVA
reported_property: IC50

                                   compound  reported_property    result
0  Cn1c(Sc2ccc(C(=O)NO)cc2)nnc1-c1cccs1 [comp. 10]               IC50   2.82 µM
1  Cn1c(Sc2c(F)cc(C(=O)NO)cc2F)nnc1-c1cccs1 [comp. 17]               IC50   6.86 µM
2  O=C(NO)c1ccc(Cn2nnc(-c3ccccc3F)n2)cc1 [comp. 33]               IC50  0.441 µM
3  O=C(NO)c1cc(F)c(Cn2nnc(-c3scc4c3OCCO4)n2)c(F)c1 [comp. 79]               IC50   1.91 µM
4  O=C(NO)c1cc(F)c(Cn2nnc(-c3cccs3)n2)c(F)c1 [comp. 65]               IC50   1.45 µM
